Test: NCI Yeast Anticancer Drug Screen. Data for the bub3 strain (AID 167)
Details: S. cerevisiae bub3 mutant strain, at 50.0 µM, hits give high values
About 79,000 compounds went through this panel and 15% of them were active in at least one assay; those are over-represented in the sample as a whole. Active and inactive are the calls of the source. Cut-off read from the data, not from the text of the source: active = growth inhibition above about 70%; inactive = the rest.
OUTCOME MEASURE: growth inhibition

Some compounds with recorded growth inhibition:
                                   compound    recorded_result
0                   Oc1ccc2ccc3[nH]cnc3c2c1   -8.9% (inactive)
1  OC1c2ccccc2-c2ccc(Cl)cc21 (stereo not drawn)   4.15% (inactive)
2  COC1(OC)CC2C(=O)N(Cc3ccccc3)C1C=C2S(=O)(=O)c1ccccc1 (stereo not drawn)   1.55% (inactive)
3  O=S(NOCc1ccccc1)c1ccccc1 (stereo not drawn)     -6% (inactive)
4  COC(=O)c1nc(N)nc(C(=O)OC)c1C(=O)c1ccncc1  -24.9% (inactive)

Query: # get_value(readout='growth inhibition', item= Cc1cc(N=Nc2ccc(N(C)C)cc2)ccn1 )
Result: 13.7% (inactive)

Query: # get_value(readout='growth inhibition', item= COc1ccc2c3c(n(Cc4ccccc4)c(=O)c2c1)-c1cc(OC)c(OC)cc1C3C (stereo not drawn) )
Result: -20.4% (inactive)

Query: # get_value(readout='growth inhibition', item= O=c1onc2c3ccccc3ncn12 )
Result: -8.6% (inactive)

Query: # get_value(readout='growth inhibition', item= O=C1c2ccccc2C(=O)N1/N=C\c1ccc(O)cc1 )
Result: 0.95% (inactive)

Query: # get_value(readout='growth inhibition', item= O=C(c1ccc(F)cc1)c1cccc(C(=O)c2ccc(F)cc2)n1 )
Result: -3.4% (inactive)

Query: # get_value(readout='growth inhibition', item= O=C(COc1ccc(Cl)c(Cl)c1)Nc1cccc(C(=O)CCl)c1 )
Result: 81.3% (active)

Query: # get_value(readout='growth inhibition', item= CC(=O)Nc1ccc(CCNC(=O)c2ccc3ccccc3c2O)cc1 )
Result: -11.8% (inactive)

Query: # get_value(readout='growth inhibition', item= CC[N+](C)(CC)CCOC(C)=O )
Result: -6.5% (inactive)

Query: # get_value(readout='growth inhibition', item= CSc1ncc(C=O)n1Cc1ccccc1 )
Result: 2.15% (inactive)

Query: # get_value(readout='growth inhibition', item= O=S(=O)(Oc1ccc(Cl)cc1)c1ccc(Br)cc1 )
Result: 39.4% (inactive)

Query: # get_value(readout='growth inhibition', item= COc1ccc(CCN/C=C(\C)C(=O)c2ccc(F)cc2)cc1OC )
Result: -13.9% (inactive)

Query: # get_value(readout='growth inhibition', item= CCCCCCCCCCCCCCNC(=O)C(C)O (stereo not drawn) )
Result: 11.3% (inactive)

Query: # get_value(readout='growth inhibition', item= ClC(Cl)(Cl)C(N1CCN(c2ccccc2)CC1)N1CCN(c2ccccc2)CC1 )
Result: -25.9% (inactive)

Query: # get_value(readout='growth inhibition', item= Cc1cc2c(c(C(N)=O)c1C)-c1cccc(Cl)c1C2=O )
Result: 1.35% (inactive)

Query: # get_value(readout='growth inhibition', item= Nc1c(Cl)cc2c(c1Br)C(=O)c1ccccc1C2=O )
Result: 11.9% (inactive)

###

Test: NCI Yeast Anticancer Drug Screen. Data for the rad50 strain (AID 155);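 note: 0% = growth of vehicle-only cultures of the same strain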
Conditions: S. cerevisiae rad50 strain growth inhibition; at 50.0 µM
The panel holds about 79,000 compounds, 15% with a hit somewhere; the sample as a whole holds those more often. Activity calls are given as the source filed them. Rule as the data show it: active = growth inhibition above about 70%; inactive = the rest.
# valid calls are y (active), n (inactive); nothing else

Here are 3 molecules together with their reported answers.
                    molecule  label_value
0         CCCOC(=O)CC(=O)OCC            n
1        Cc1c(O)cc(O)c(C)c1C            n
2  CCCCCCCCCc1ccc(COCCCC)cc1            n

Query: GET /call?item= COc1ccc(C(=Cc2cc(OC(C)=O)c3ccccc3c2OC(C)=O)c2ccc(OC)cc2)cc1 returns the recorded outcome of this test.
Result: n

Query: GET /call?item= Cc1ccc(C2(C)CC[C@@H]3C[C@@]32C)c(O)c1 (some centres not stated) returns the recorded outcome of this test.
Result: y

Query: GET /call?item= CCc1nc(N)nc(N)c1-c1ccc(Cl)c(N=CN(C)C)c1 returns the recorded outcome of this test.
Result: n

Query: GET /call?item= CN1CCOC1(C)CO (configuration not stated) returns the recorded outcome of this test.
Result: n
